The values you see were collected from patent US20250002543A1.

# Study Target: human PCSK9 antibody containing human κ light chain subgroup 4 (Vκ4) (manufactured by R&D Systems)
# Test Details: ELISA; antibody immobilised (10 ug/mL), binding protein at 50 ug/mL, Anti-6-His detection, blank-subtracted
Measured Attribute: Polyclonal antibody-binding activity (abs@450 nm)

FpL_C3KX 4h (designed binder) ETPEEPAEEVTIRVNLIFADGQIQTAEFIGTFEEATARAYAYANLLARDYGGYTADLEDGGYTINIRFAGHHHHHH ... 0.62
FpL_C3KR (designed binder) ETPEEPREEVTIRVNLIFADGRIQTAEFRGTFEEATARAYAYANLLARENGEYTADLEDGGNTINIRFAGHHHHHH ... 0.77
FpL_C3KX 3a (designed binder) ETPEEPAEEVTIRVNLIFADGQIQTAEFIGTFEEATARAYAYANLLAREYGGYTADLEDGGYTINIRFAGHHHHHH ... 0.76
FpL_C4KR (designed binder) ETPEEPREEVTIRVNLIFADGRTQTAEFRGTFEEATAEAYRYADLLARVNGEYTADLEDGGYTINIRFAGHHHHHH ... 0.55
